Measured IC50 by item
# System: UniProt:P12822
# Sequence (P12822 whole entry): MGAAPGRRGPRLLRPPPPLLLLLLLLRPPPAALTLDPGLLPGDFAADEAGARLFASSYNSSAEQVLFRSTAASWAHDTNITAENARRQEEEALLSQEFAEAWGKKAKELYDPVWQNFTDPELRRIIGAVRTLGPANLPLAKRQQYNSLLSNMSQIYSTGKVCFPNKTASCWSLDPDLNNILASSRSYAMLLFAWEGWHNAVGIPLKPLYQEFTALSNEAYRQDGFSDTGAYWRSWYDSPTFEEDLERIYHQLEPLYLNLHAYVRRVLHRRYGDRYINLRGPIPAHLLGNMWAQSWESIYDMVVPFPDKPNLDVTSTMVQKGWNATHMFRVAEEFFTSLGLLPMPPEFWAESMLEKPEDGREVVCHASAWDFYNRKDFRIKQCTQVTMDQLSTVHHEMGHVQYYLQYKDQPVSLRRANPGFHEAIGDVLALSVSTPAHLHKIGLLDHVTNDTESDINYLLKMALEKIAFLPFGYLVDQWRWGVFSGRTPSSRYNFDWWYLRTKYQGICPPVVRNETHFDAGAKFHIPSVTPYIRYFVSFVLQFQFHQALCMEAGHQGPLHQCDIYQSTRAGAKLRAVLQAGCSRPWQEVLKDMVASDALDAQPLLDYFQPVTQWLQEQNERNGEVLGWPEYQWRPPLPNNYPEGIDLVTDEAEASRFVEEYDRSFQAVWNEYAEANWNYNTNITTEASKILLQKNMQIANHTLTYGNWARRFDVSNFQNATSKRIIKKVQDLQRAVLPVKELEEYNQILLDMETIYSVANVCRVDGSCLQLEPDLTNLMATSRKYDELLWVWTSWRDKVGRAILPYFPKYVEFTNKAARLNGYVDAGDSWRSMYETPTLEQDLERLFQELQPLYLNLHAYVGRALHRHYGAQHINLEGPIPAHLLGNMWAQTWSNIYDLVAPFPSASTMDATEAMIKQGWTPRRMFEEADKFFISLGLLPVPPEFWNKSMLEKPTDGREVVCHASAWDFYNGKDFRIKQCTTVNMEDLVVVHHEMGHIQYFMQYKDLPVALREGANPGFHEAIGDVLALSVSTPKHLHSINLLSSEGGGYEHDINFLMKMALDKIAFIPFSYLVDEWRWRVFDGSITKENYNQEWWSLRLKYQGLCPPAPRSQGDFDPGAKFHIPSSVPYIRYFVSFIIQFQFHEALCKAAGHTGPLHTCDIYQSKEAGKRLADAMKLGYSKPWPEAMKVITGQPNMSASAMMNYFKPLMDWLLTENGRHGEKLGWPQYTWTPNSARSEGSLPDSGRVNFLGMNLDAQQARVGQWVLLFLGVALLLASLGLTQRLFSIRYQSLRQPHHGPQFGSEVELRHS
Attribute Measured: IC50 (µM)

[[record]]
molecule = "CCOC(=O)[C@H](CCc1ccccc1)N[C@@H](C)C(=O)N1[C@H](C(=O)O)C[C@@H]2CCC[C@@H]21"
quantitative_readout = 0.253

[[record]]
molecule = "O=C1[C@@H]2C[C@@H](O)CN2C(=O)c2ccccc2N1Cc1cc(Br)cs1"
quantitative_readout = 0.272

[[record]]
molecule = "O=C1[C@@H]2C[C@@H](O)CN2C(=O)c2ccccc2N1Cc1ccc(Br)cc1"
quantitative_readout = 0.658

[[record]]
molecule = "NCCCC[C@H](N[C@@H](CCc1ccccc1)C(=O)O)C(=O)N1CCC[C@H]1C(=O)O [LISINOPRIL ANHYDROUS]"
quantitative_readout = 0.262

[[record]]
molecule = "COc1cc(CN2C(=O)[C@@H]3C[C@@H](O)CN3C(=O)c3ccccc32)cc(OC)c1OC"
quantitative_readout = 0.376

